Provenance of the data: the nanobody polyreactivity screen of Harvey et al. (2022)

# EXPERIMENTAL PROTOCOL: yeast display, Sf9 membrane polyspecificity reagent, FACS + sequencing; frameworks hold sequencing errors
MEASURED PARAMETER: polyreactivity (PSR sort gate)

Worked cases, answers included:
>  <QUERY SEQUENCE>
QVQLVESGGGLVQAGGSLRLSCAASGRIFGYYTMGWYRQAPGKERELVAAINGRGTSTYYADSVKGRFTISRDNAKNTVYLQMNSLKPEDTAVYYCAARYTRTVGYDYWGQGTQVTVSS

>  <TEST RESULT>
high polyreactivity

$$$$
>  <QUERY SEQUENCE>
QVQLVESGGGLVQAGGSLRLSCAASGRTFGVYAMGSYRQAPGKEREFVATIRTTGSTNYADSVKGRFTISRDNAKNTVYLQMNSLKTEDTAVYYCAARQRQSKYYPYTTFTYDYWGQGTQVTVSS

>  <TEST RESULT>
high polyreactivity

$$$$
>  <QUERY SEQUENCE>
QVQLVESGGGLVQAGGSLRLSCDASGGTFPYYAMGWYRQATGKERELVPDISGTDGSTYYADSVKGRFTISRDNANYTVYLQMNSLKPEDTAVYYCNADPHWWYWDYDYWGQGTQVTVSS

>  <TEST RESULT>
high polyreactivity

$$$$
>  <QUERY SEQUENCE>
QVQLVESGGGLDQAGGSLRLSCAASGSIFGFYAMGWSRQAPGKERELVAAITWRGGSTYYADSVKGRFTISRDNAKNTVYLQMTILKPEDTAVYYCAATSARRQTYNFAKYDYWGQGTQVTLSS

>  <TEST RESULT>
low polyreactivity

$$$$
>  <QUERY SEQUENCE>
QVQLVESGGGIVQAGGSLRLSSAASGITFGANAMGWYRQAPGKERELVADITWSGGDTYYADSVKGRFTSSRDNAKNSVYLQMNSLKPEDTAVYYCNALQPGLGSPLGEYDYWGQGTQVTVSS

>  <TEST RESULT>
low polyreactivity

$$$$
>  <QUERY SEQUENCE>
QVQLVESGGGLVQAGGSLRLSCAASGSTFWTNDMGWYRQAPGKERELVAAISQSAGDTYYADSVKGRFTISRDNAKNTVYLQMNSLKPEDTAVSYCAADLVFYPFTWDGYYYWGQGTQVTVSS

>  <TEST RESULT>
low polyreactivity

$$$$
>  <QUERY SEQUENCE>
QVQLVESGGGLVQAGGSLRLSCAASGFTFQTYAMGWYRQAPGKERELVATINSSGGGTYYADSVKGRFTISRDNAKNTVYLQMNSLKPEDTAVDYCAADAVWFVGQAFDISDSTTYGYWGQGTQVTVSS

>  <TEST RESULT>
low polyreactivity

$$$$
>  <QUERY SEQUENCE>
QVQLVESGGGLVQAGGRLRLSCAASGSIFSSNAMGWYRQAPGKERELVASIRGSGVSTYYADSVKGRFTISRDNAKNTVYLQMNSMKPEDTAVYYCAARYGRSYFGYYFWGQGTQVTVSS

>  <TEST RESULT>
high polyreactivity

$$$$
>  <QUERY SEQUENCE>
QVQLVESGGGLVQAGGILRLSCAASGRTFRIYAMGRYRPAPAKVREFVAGITRSDGSTYYADSVKGRFTISRDNAKNTVSFQMNSLKPVDTEVYYCYVEPYSHYRRTEDYWGQGTEVTVSS

>  <TEST RESULT>
high polyreactivity

$$$$
>  <QUERY SEQUENCE>
QDQLVESGGGLVQAGGSLRLSCAASGRTFGVNAMGWYRQAPGKERELVASIRWNGGSTYYADSVKGRFTISRDNAKNTVYFQMNSLKPEDTAVYYCNAVRRYRSREFDYWGQGTQVNVSS

>  <TEST RESULT>
low polyreactivity

$$$$

Retrieve polyreactivity (PSR sort gate) measured for `QVQLVESGGGLVQAGGSLRLSCAASGRTFRPYAMGWYRQAPGKERELVAAITSCGSTYYADSVKGRFTISRDNAKNTVYLQMNSLKPEDTAVYYCNAKYYYQPPYDYWGQGTQVTVSS` and print it.
low polyreactivity

Determine its reported polyreactivity (PSR sort gate): `QVQLVESGGGLVQAGGSLRLSCAASGRTFYKYAMGWYRQAPGKERELVAAISGGGTTNYADSVKGRFTISRDNAKNTVYLQMNSLKPEDTAVYYCNAARTRWATGYDYWGQGTQVTVSS`
low polyreactivity

Entry `QVQLVESGGGLVQAGGSLRLSCAASGSTFRYYAMGWYRQAPGKERELVAAITRSGSTYYADSVKGRFTISRDNAKNTVYLQMNSLKREDTAVYYCNADQYYGGRYVYLRHYNYWGQGTQVTVSS` needs its polyreactivity (PSR sort gate) filled in; supply it.
high polyreactivity

Note polyreactivity (PSR sort gate) for the sequence shown: `QDQLVESGGGLVQAGGSLRLSCAASGGIFFYYVMGWYRKAPGKEREFVAAITSGGSTYYADSVKGRFTISGDNAKNTVYLQMNRLKPEDTAVYYCNARDVVDYSVWSRYAYDYWGQGTQVTVSS`
low polyreactivity
